tested on: HS 578T breast; assay: NCI tumour cell line growth inhibition, 48 h
Parameter Measured: TGI

Form field TGI for item CCCCc1c2c(nc3c1CCCC3O)CCCC2 (stereo unspecified) on HS 578T breast: > 100 µM

Form field TGI for item CN(C)c1ccc(/C=c2/c3ccccc3n3nc4ccccc4c23)cc1 on HS 578T breast: > 100 µM

Form field TGI for item c1ccc(N=C(Nc2ccccc2)N2CCCCC2)cc1 on HS 578T breast: > 100 µM

Form field TGI for item COC(=O)C1(c2cc3ccccc3n2S(=O)(=O)c2ccccc2)CC2C=CC1NC2 (stereo unspecified) on HS 578T breast: > 25.9 µM

Form field TGI for item Cc1ccc2c(=O)c3cccc(CC(=O)O)c3[nH]c2c1C on HS 578T breast: > 100 µM

Form field TGI for item O=C1NC(O)C(c2c[nH]c3ccccc23)=C1c1c[nH]c2ccccc12 (stereo unspecified) on HS 578T breast: > 25 µM

Form field TGI for item c1ccc2c(c1)nc1n2CCCn2ccnc2-1 on HS 578T breast: > 100 µM

Form field TGI for item Cc1nc2ccc(S(=O)(=O)Nc3ccccc3)cc2c(=O)n1NC(=O)CNc1ccccc1 on HS 578T breast: > 100 µM

Form field TGI for item OC1(c2ccccc2)CC2CCC(C1)N2CCCC1(c2ccc(F)cc2)OCCO1 (stereo unspecified) on HS 578T breast: > 100 µM

Form field TGI for item CC1=C2C[C@H]3[C@@H](CC[C@@H]4CC(NS(C)(=O)=O)CC[C@@]43C)[C@@H]2CC[C@@]2(C1)O[C@@H]1C[C@H](C)CN[C@H]1[C@H]2C (stereo partly specified) on HS 578T breast: 37.5 µM

Form field TGI for item COc1ccc2c(=O)c3ccoc3n(CC=C(C)C)c2c1 on HS 578T breast: > 100 µM

Form field TGI for item COc1ccc(C2CC(c3ccccc3)=Nc3c(-c4ccccc4)nnn32)cc1 (stereo unspecified) on HS 578T breast: > 100 µM

Form field TGI for item Cc1ccc(N=Nc2ccc(O)c(CN(C)C)c2)cc1C on HS 578T breast: 56.2 µM

Form field TGI for item Cc1nc2sc3ccccc3n2c(=O)c1N=Nc1ccc(Br)cc1 on HS 578T breast: > 100 µM

Form field TGI for item O=C(CNc1ccc2c(c1)C(=O)c1ccccc1C2=O)Nc1ccc2c(c1)C(=O)c1ccccc1C2=O on HS 578T breast: 13.2 µM

Form field TGI for item CC(=O)O[C@H]1C(=O)[C@@]2(C)[C@H]([C@H](OC(=O)c3cccc(C(F)(F)F)c3)[C@]3(O)C[C@H](OC(=O)[C@H](O)[C@@H](NC(=O)c4ccccc4)c4ccccc4)C(C)=C1C3(C)C)[C@]1(OC(C)=O)CO[C@@H]1C[C@@H]2O on HS 578T breast: 0.0653 µM

Form field TGI for item O=C1CCCCCCCC/C=C\CC(c2ccco2)O1 (stereo unspecified) on HS 578T breast: > 100 µM

Form field TGI for item Cc1ccc(NC(=O)CSc2nc(C)nc3c2sc(=S)n3-c2ccccc2)cc1 on HS 578T breast: 6.3 µM

Form field TGI for item COc1cc(NC(C)=O)ccc1C(=O)N/N=C/c1ccc(Cl)cc1Cl on HS 578T breast: > 100 µM

Form field TGI for item C=CC(=O)N1CCN(c2nc(=O)n(-c3c(C)ccnc3C(C)C)c3nc(-c4c(O)cccc4F)c(F)cc23)[C@@H](C)C1 on HS 578T breast: > 100 µM

Form field TGI for item CC(C)=NN/C(=N\S(=O)(=O)c1ccc(C)cc1)Nc1ccc(Cl)cc1 on HS 578T breast: > 100 µM

Form field TGI for item CCN1CCN(c2ccc(Nc3ccnc4ccc5c(nnn5C)c34)cc2)CC1 on HS 578T breast: 31.9 µM

Form field TGI for item Cn1c(/C=C(\C#N)c2ccccc2)nc2c(N3CCOCC3)nc(Cl)nc21 on HS 578T breast: 5.64 µM

Form field TGI for item Nc1c2c(=O)[nH]c(=O)c2c(N)c2c(=O)c3ccccc3c(=O)c12 on HS 578T breast: > 25.9 µM

Form field TGI for item COc1cc(OC)c2c(=O)cc(-c3ccccc3F)[nH]c2c1 on HS 578T breast: > 100 µM

Form field TGI for item CC(=O)OC(C)C1C2=C(C(=O)CC1(C)O)C(=O)c1c(ccc(-c3ccc4c(c3O)C(=O)C3=C(C4=O)C(C(C)OC(C)=O)C(C)(O)CC3=O)c1O)C2=O (stereo unspecified) on HS 578T breast: 5 µM

Form field TGI for item CCC(CO)Nc1nc(NCc2ccccc2O)c2ncn(C(C)C)c2n1 (stereo unspecified) on HS 578T breast: 16.7 µM

Form field TGI for item Oc1cc(Br)cc2cccnc12 on HS 578T breast: > 100 µM

Form field TGI for item COc1ccc(-c2c(=O)[nH]n3c(=S)nc(-c4ccccc4)[nH]c23)cc1OC on HS 578T breast: > 100 µM

Form field TGI for item [O-][n+]1onc2c1CCC(=N\O)/C2=N/Nc1ccccc1 on HS 578T breast: > 100 µM

Form field TGI for item O=c1ccn(C2OC(CO/N=C/c3ccc(O)c(O)c3O)C(O)C2O)c(=O)[nH]1 (stereo unspecified) on HS 578T breast: 59.7 µM

Form field TGI for item CC(C)(C)c1cc(C2NCCO2)cc(C(C)(C)C)c1O (stereo unspecified) on HS 578T breast: > 100 µM

Form field TGI for item Oc1cc(-c2ccccc2)cn2c1nc1ccccc12 on HS 578T breast: 47.7 µM

Form field TGI for item CC(OC(C)(C)C)[C@H](NC(=O)OC(C)(C)C)C(=O)O (stereo partly specified) on HS 578T breast: > 100 µM

Form field TGI for item NNC(=O)c1ccccc1NC(=O)/C(=C/c1ccccc1O)NC(=O)c1ccccc1 on HS 578T breast: 39.3 µM

Form field TGI for item O=C1CC(O)c2c(Br)sc(Br)c21 (stereo unspecified) on HS 578T breast: 55.9 µM
